# System: RARb:RXRa (NR concentration 270 nM, RXRa partner concentration 90 nM)
# procedureText: PBM binding z-score (relative to random genomic background probes); higher = stronger binding; sequences stand for … in GC…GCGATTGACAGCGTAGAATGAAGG
Use 0.9 as the dividing line for PBM binding z-score, with the line itself on the 1 (yes) side and lower values as 0 (no).

- seqString: "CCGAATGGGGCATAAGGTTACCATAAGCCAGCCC"
  assignedCategory: "1 (yes)"
- seqString: "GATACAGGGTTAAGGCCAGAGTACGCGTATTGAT"
  assignedCategory: "1 (yes)"
- seqString: "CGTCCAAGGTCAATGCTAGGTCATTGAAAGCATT"
  assignedCategory: "1 (yes)"
- seqString: "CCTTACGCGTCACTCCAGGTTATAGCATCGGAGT"
  assignedCategory: "0 (no)"
- seqString: "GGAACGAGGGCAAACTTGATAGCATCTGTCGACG"
  assignedCategory: "1 (yes)"

---

# Tested on: FXR:RXRa (NR concentration 270 nM, RXRa partner concentration 90 nM)
# procedureText: PBM binding z-score (relative to random genomic background probes); higher = stronger binding; sequences stand for … in GC…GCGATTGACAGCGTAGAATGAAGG
Please use Y whenever PBM binding z-score is not below 3, and N whenever it is.

- seqString: "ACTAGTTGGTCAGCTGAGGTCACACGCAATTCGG"
  assignedCategory: "Y"
- seqString: "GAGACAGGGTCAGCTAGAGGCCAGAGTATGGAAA"
  assignedCategory: "Y"
- seqString: "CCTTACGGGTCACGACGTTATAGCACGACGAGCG"
  assignedCategory: "Y"
- seqString: "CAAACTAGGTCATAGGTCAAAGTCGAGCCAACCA"
  assignedCategory: "Y"
- seqString: "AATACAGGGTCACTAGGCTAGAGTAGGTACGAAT"
  assignedCategory: "Y"
- seqString: "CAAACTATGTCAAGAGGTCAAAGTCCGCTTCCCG"
  assignedCategory: "Y"
- seqString: "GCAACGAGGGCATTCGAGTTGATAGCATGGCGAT"
  assignedCategory: "N"
- seqString: "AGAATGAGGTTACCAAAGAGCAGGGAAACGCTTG"
  assignedCategory: "N"
- seqString: "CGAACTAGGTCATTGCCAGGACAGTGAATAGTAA"
  assignedCategory: "Y"
- seqString: "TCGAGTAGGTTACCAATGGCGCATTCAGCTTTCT"
  assignedCategory: "N"
- seqString: "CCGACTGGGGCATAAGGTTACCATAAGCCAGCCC"
  assignedCategory: "N"

---

# Tested on: RARb homodimer (NR concentration 270 nM)
# procedureText: PBM binding z-score (relative to random genomic background probes); higher = stronger binding; sequences stand for … in GC…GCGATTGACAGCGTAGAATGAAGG

- seqString: "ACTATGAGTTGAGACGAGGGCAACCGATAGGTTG"
  PBM binding z-score: 1.27
- seqString: "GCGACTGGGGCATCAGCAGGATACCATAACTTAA"
  PBM binding z-score: -0.0166
- seqString: "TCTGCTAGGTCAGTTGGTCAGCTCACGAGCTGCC"
  PBM binding z-score: 2.45
- seqString: "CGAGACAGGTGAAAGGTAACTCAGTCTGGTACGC"
  PBM binding z-score: 0.817
- seqString: "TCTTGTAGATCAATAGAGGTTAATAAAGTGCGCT"
  PBM binding z-score: 1.15
- seqString: "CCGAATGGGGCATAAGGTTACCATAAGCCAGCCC"
  PBM binding z-score: 1.7
- seqString: "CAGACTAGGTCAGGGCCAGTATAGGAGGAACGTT"
  PBM binding z-score: 2.28
- seqString: "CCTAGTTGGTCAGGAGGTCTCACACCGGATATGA"
  PBM binding z-score: 1.11
- seqString: "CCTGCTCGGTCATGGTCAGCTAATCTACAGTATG"
  PBM binding z-score: 1.93
- seqString: "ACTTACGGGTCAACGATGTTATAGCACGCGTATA"
  PBM binding z-score: 3.01
- seqString: "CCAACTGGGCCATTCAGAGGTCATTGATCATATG"
  PBM binding z-score: 3.76
- seqString: "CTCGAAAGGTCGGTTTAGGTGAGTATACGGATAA"
  PBM binding z-score: 1.77

---

# System: PPARa:RXRa (NR concentration 270 nM, RXRa partner concentration 90 nM)
# procedureText: PBM binding z-score (relative to random genomic background probes); higher = stronger binding; sequences stand for … in GC…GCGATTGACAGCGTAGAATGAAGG
Label Y when PBM binding z-score is at or above 2; anything below gets N.

- seqString: "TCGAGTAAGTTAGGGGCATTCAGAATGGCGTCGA"
  assignedCategory: "N"
- seqString: "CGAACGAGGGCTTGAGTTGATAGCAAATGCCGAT"
  assignedCategory: "N"
- seqString: "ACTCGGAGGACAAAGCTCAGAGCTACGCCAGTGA"
  assignedCategory: "N"
- seqString: "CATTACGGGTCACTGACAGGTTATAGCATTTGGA"
  assignedCategory: "Y"
- seqString: "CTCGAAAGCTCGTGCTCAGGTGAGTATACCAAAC"
  assignedCategory: "N"
- seqString: "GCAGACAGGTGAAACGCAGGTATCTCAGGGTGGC"
  assignedCategory: "N"
- seqString: "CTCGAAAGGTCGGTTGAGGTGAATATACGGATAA"
  assignedCategory: "Y"
- seqString: "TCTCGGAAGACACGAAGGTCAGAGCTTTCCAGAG"
  assignedCategory: "N"
- seqString: "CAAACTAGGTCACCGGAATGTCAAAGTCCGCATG"
  assignedCategory: "Y"
- seqString: "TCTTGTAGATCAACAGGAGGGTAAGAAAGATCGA"
  assignedCategory: "N"
- seqString: "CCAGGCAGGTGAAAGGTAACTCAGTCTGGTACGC"
  assignedCategory: "Y"
- seqString: "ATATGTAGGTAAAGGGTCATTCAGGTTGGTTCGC"
  assignedCategory: "Y"

---

# Tested on: THRa:RXRa (NR concentration 90 nM, RXRa partner concentration 90 nM)
# procedureText: PBM binding z-score (relative to random genomic background probes); higher = stronger binding; sequences stand for … in GC…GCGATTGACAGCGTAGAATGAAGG

- seqString: "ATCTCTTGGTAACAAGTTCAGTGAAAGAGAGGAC"
  PBM binding z-score: 0.831
- seqString: "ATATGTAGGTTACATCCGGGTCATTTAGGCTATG"
  PBM binding z-score: 3.7
- seqString: "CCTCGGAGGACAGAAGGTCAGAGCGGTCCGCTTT"
  PBM binding z-score: 2.35
- seqString: "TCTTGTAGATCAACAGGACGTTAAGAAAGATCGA"
  PBM binding z-score: 0.0444
- seqString: "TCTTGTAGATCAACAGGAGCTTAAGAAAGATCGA"
  PBM binding z-score: -0.552
- seqString: "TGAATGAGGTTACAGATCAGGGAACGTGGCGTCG"
  PBM binding z-score: 2.67
- seqString: "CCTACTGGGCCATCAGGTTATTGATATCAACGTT"
  PBM binding z-score: 0.797
- seqString: "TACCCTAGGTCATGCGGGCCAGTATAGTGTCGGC"
  PBM binding z-score: 3.18
- seqString: "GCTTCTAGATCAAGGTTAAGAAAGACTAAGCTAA"
  PBM binding z-score: 1.16
- seqString: "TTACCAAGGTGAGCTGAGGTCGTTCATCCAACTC"
  PBM binding z-score: 4.63
- seqString: "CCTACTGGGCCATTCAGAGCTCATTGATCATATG"
  PBM binding z-score: -0.578
- seqString: "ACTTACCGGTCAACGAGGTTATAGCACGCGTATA"
  PBM binding z-score: 2.69

---

# Test system: PPARg:RXRa 30nM:10nM, anti-RXR (NR concentration 30 nM, RXRa partner concentration 10 nM)
# procedureText: PBM binding z-score (relative to random genomic background probes); higher = stronger binding; sequences stand for … in GC…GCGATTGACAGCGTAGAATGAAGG

- seqString: "ATCGAAAGGCCGAAGGTGAGTATACCCACCCGAA"
  PBM binding z-score: 0.275
- seqString: "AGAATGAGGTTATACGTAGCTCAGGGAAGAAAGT"
  PBM binding z-score: 0.439
- seqString: "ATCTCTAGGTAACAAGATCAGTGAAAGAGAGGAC"
  PBM binding z-score: 0.253
- seqString: "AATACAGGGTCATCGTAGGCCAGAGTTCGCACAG"
  PBM binding z-score: 2.9
- seqString: "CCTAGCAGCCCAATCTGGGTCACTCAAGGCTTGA"
  PBM binding z-score: -0.36
- seqString: "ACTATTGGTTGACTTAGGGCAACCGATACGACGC"
  PBM binding z-score: 0.181
- seqString: "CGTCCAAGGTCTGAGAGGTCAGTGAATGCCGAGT"
  PBM binding z-score: -0.614
- seqString: "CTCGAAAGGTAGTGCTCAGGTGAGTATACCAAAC"
  PBM binding z-score: -0.375
- seqString: "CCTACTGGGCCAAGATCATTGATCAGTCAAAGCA"
  PBM binding z-score: -0.171
- seqString: "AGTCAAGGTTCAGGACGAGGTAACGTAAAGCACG"
  PBM binding z-score: 0.624
- seqString: "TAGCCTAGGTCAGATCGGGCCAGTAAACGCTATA"
  PBM binding z-score: -0.817
- seqString: "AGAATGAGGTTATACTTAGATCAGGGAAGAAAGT"
  PBM binding z-score: 0.605
